target: GST-tagged-Wee1 kinase (Homo sapiens, UniProt P30291); construct: purchased Carnabio 05-177; test: Wee1 time-resolved fluorescence equilibrium binding assay (displacement of Oregon Green-labeled ATP-competitive probe); conditions: TR-FRET probe displacement; 2 nM GST-Wee1, 300 nM probe, 1 hour incubation; read-out: Wee-1 binding (Ki nM)
Sequence (P30291 whole entry): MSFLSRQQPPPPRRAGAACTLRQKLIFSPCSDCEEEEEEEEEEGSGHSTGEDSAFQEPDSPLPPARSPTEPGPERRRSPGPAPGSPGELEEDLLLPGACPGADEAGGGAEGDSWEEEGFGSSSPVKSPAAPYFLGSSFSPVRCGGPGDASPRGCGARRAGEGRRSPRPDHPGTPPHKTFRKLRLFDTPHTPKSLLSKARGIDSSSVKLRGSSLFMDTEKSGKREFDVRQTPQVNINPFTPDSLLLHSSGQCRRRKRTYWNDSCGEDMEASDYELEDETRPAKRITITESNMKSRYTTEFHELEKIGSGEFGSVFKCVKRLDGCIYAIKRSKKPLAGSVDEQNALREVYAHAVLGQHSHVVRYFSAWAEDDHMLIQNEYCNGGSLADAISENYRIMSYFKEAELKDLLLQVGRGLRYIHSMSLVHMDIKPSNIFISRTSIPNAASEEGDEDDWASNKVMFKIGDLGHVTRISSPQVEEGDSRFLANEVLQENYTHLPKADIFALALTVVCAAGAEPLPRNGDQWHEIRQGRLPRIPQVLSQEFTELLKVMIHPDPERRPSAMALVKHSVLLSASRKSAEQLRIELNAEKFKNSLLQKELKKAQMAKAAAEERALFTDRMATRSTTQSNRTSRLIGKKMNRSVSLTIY
REPORTED_METRIC: Ki (nM)

[
  {
    "COMPOUND": "C=CCN1c2ccccc2-c2nc(Nc3ccncc3)ncc2S1(=O)=O",
    "TESTED_SYSTEM": "GST-tagged-Wee1 kinase (Homo sapiens, UniProt P30291)",
    "Ki [nM]": 30
  }
]

A. C=CCN1c2ccccc2-c2nc(Nc3ccc(OCCN(CC)CC)cc3)ncc2S1(=O)=O
B. C=CCN1c2ncccc2-c2nc(Nc3ccc(N4CCOCC4)cc3)ncc2S1(=O)=O
C. CCCN1c2ccc(-c3ccncc3)cc2-c2nc(Nc3ccc(N4CCN(C)CC4)cc3)ncc2S1(=O)=O
D. COC(=O)c1ccc2c(c1)N(c1ccccc1)S(=O)(=O)c1cnc(Nc3ccc(N4CCN(C)CC4)cc3)nc1-2
// smallest Ki at index 0, largest at the end Put the labels in the requested order and write them down.
D, C, A, B

1. C=CCN1c2ccccc2-c2nc(Nc3ccc(N4CCN(C(C)=O)CC4)cc3)ncc2S1(=O)=O
2. CCCN1c2cc(-n3ccnc3)ccc2-c2nc(Nc3ccc(N4CCN(C)CC4)cc3)ncc2S1(=O)=O
Short answer wanted: higher Ki, 1 or 2 ? State your choice using its label.
2
(2: 14 nM, 1: 5 nM)

P. CCCN1c2ccc(-c3ccccc3)cc2-c2nc(Nc3ccc(N4CCN(C)CC4)cc3)ncc2S1(=O)=O
Q. C/C=C/N1c2ccccc2-c2nc(Nc3ccc(N4CCN(C)CC4)cc3)ncc2S1(=O)=O
R. C=CCN1c2c(C(=O)O)cccc2-c2nc(Nc3ccc(N4CCN(C)CC4)cc3)ncc2S1(=O)=O
S. C=CCN1c2ncccc2-c2nc(Nc3ccc4c(c3)CNCC4)ncc2S1(=O)=O
T. CCCN1c2cc(C(=O)NC3CCCCC3)ccc2-c2nc(Nc3ccc(N4CCN(C)CC4)cc3)ncc2S1(=O)=O
// smallest Ki at index 0, largest at the end Put the labels in the requested order and write them down.
Q, S, P, T, R
(Q: 1.7 nM, S: 3 nM, P: 6 nM, T: 13 nM, R: 141 nM)

a. CCCN1c2ccc(Br)cc2-c2nc(Nc3ccc(N4CCN(C)CC4)cc3)ncc2S1(=O)=O
b. C=CCN1c2ncccc2-c2nc(Nc3ccc4c(c3)CN(C)CC43CC3)ncc2S1(=O)=O
Short answer wanted: higher Ki, a or b ? State your choice using its label.
a

P. CCCN1c2cc(-n3cccc3)ccc2-c2nc(Nc3ccc(N4CCN(C)CC4)cc3)ncc2S1(=O)=O
Q. COC(=O)c1ccc2c(c1)NS(=O)(=O)c1cnc(Nc3ccc(N4CCN(C)CC4)cc3)nc1-2
R. C=CCN1c2ccccc2-c2nc(Nc3ccc(-c4nc5cnccc5[nH]4)cc3)ncc2S1(=O)=O
S. C=CCN1c2ccccc2-c2nc(Nc3ccc(N4CCN(C)CC4)cc3OC)ncc2S1(=O)=O
T. C=CCN1c2ncccc2-c2nc(Nc3ccc(N4CCN5CCCC5C4)cc3)ncc2S1(=O)=O (stereo not shown)
Please rank these compounds by Ki in descending order. Put the labels in the requested order and write them down.
R, Q, S, P, T

I. C=CCN1c2ncccc2-c2nc(Nc3ccc4c(c3)CNCC43CC3)ncc2S1(=O)=O
II. C=CCN1c2ccccc2-c2nc(Nc3ccc(C4CCCCC4)cc3)ncc2S1(=O)=O
III. C=CCN1c2ncccc2-c2nc(Nc3ccc(N4CCN(C)CC4)c(C)c3)ncc2S1(=O)=O
// smallest Ki at index 0, largest at the end Put the labels in the requested order and write them down.
I, III, II
(I: 1.2 nM, III: 5 nM, II: 2080 nM)

A. C=CCN1c2ccccc2-c2nc(Nc3ccc4c(c3)CN(C)CC43CC3)ncc2S1(=O)=O
B. COC(=O)c1ccc2c(c1)N(c1cc(C(F)(F)F)cc(C(F)(F)F)c1)S(=O)(=O)c1cnc(Nc3ccc(N4CCN(C)CC4)cc3)nc1-2
Identify the item whose Ki is the smaller number: A or B State your choice using its label.
A

a. C=CCN1c2ccccc2-c2nc(Nc3ccccc3)ncc2S1(=O)=O
b. CCCN1c2ccc(-c3ccccc3CN(C)C)cc2-c2nc(Nc3ccc(N4CCN(C)CC4)cc3)ncc2S1(=O)=O
Identify the item whose Ki is the smaller number: a or b State your choice using its label.
b
(b: 7.6 nM, a: 220 nM)

Where these numbers come from: patent US8716297B2
